MIC values for the compounds below.
System: Candida tropicalis
Test: Antifungal activity against Candida tropicalis ATCC 750 assessed as inhibition of fungal growth incubated for 24 to 48 hrs by CLSI protocol based broth microdilution method
Assay type: functional
Conditions: time 24-48 hrs

C/C(CCC(=O)O)=N\Nc1nc(-c2ccc(C#N)cc2)cs1 :: 24.8 µM
OC(Cn1cncn1)(Cn1cncn1)c1ccc(F)cc1F [FLUCONAZOLE] :: 0.8 µM
CCOC(=O)Cc1csc(N/N=C\C2CCCCC2)n1 :: 6.6 µM
C/C(CCC(=O)O)=N\Nc1nc(-c2ccc(Cl)cc2)cs1 :: 6 µM
CCOC(=O)/C(C)=N/Nc1nc(-c2ccc(Cl)cc2)cs1 :: > 125 µM

For the compound C[C@@H]1[C@H](O)[C@@H](C)/C=C/C=C/C=C/C=C/C=C/C=C/C=C/[C@H](O[C@@H]2O[C@H](C)[C@@H](O)[C@H](N)[C@@H]2O)C[C@@H]2O[C@](O)(C[C@@H](O)C[C@@H](O)[C@H](O)CC[C@@H](O)C[C@@H](O)CC(=O)O[C@H]1C)C[C@H](O)[C@H]2C(=O)O [AMPHOTERICIN B] , what MIC is on record? 0.5 µM

Can you handle `CCOC(=O)/C(C)=N/Nc1nc(-c2ccc(Br)cc2)cs1` next? 21.2 µM

Then this compound: `C/C(CCC(=O)O)=N\Nc1nc(-c2ccc(Br)cc2)cs1` 2.6 µM

Can you check `C/C(=N\Nc1nc(-c2ccc(F)cc2)cs1)C(=O)O` next? 112 µM

* * *

Tested on: Candida tropicalis
Assay: Antifungal activity against Candida tropicalis ATCC 750 assessed as inhibition of fungal growth incubated for 24 to 48 hrs by CLSI protocol based broth microdilution method
Type: functional
Conditions: time 24-48 hrs
test.readout: MIC (µM)
Give the value, in units of µM, as a plain number.

Worked cases, MIC given:
CCOC(=O)Cc1csc(N/N=C(\C)CCC(=O)O)n1 :: 0.8
C/C(=N\Nc1nc(-c2ccccc2)cs1)C(=O)O :: 59.8
C/C(CCC(=O)O)=N\Nc1nc(-c2ccc(C)cc2)cs1 :: 51.4

Reported MIC for `CCOC(=O)Cc1csc(NN=C(C)CCO)n1` : what is it? 57.6

Could you do the same for `C/C(=N\Nc1nc(-c2ccc(Cl)cc2)cs1)C(=O)O` , please? 106

How about CCN1CCCC(/C=N/Nc2nc(-c3ccc(Br)cc3)cs2)C1 (configuration not stated) ? 79.7

Next up: CCC(C)n1ncn(-c2ccc(N3CCN(c4ccc(OCC5COC(Cn6cncn6)(c6ccc(Cl)cc6Cl)O5)cc4)CC3)cc2)c1=O (configuration not stated) 0.2

# repeat for `COc1ccc(-c2csc(N/N=C(\C)C(=O)O)n2)cc1` 56.6

Same lookup for `CCOC(=O)/C(C)=N\Nc1nc(C)c(C(=O)OCC)s1` , please. 104

* * *

Tested on: Nakaseomyces glabratus
Assay: Antifungal activity against Candida glabrata ATCC 2001 assessed as inhibition of fungal growth incubated for 24 to 48 hrs by CLSI protocol based broth microdilution method
Format: functional
Conditions: time 24-48 hrs
test.readout: MIC

What does the data say about its MIC? Entry: `OC(Cn1cncn1)(Cn1cncn1)c1ccc(F)cc1F` 13.1 µM

Consider next the compound `CCOC(=O)/C(C)=N/Nc1nc(-c2ccc(Br)cc2)cs1` in the same way. 21.2 µM

Can you handle `C/C(CCC(=O)O)=N\Nc1nc(-c2ccc(F)cc2)cs1` next? 50.8 µM

Field entry: CCC(C)n1ncn(-c2ccc(N3CCN(c4ccc(OCC5COC(Cn6cncn6)(c6ccc(Cl)cc6Cl)O5)cc4)CC3)cc2)c1=O (stereo unspecified) 0.4 µM
